target: Recombinant Human NF-kappaB-Inducing Kinase (NIK/MAP3K14) (Homo sapiens); experiment: Biological Assay A2: inhibition of auto-phosphorylation of recombinant human NIK/MAP3K14 (AlphaScreen); type: biochemical; settings: 25 microM ATP, 0.2 nM NIK/MAP3K14, 1 h at 25° C., averaged over all batches, read-out: Alpha-Screen IC50
Sequence (Q99558 whole entry): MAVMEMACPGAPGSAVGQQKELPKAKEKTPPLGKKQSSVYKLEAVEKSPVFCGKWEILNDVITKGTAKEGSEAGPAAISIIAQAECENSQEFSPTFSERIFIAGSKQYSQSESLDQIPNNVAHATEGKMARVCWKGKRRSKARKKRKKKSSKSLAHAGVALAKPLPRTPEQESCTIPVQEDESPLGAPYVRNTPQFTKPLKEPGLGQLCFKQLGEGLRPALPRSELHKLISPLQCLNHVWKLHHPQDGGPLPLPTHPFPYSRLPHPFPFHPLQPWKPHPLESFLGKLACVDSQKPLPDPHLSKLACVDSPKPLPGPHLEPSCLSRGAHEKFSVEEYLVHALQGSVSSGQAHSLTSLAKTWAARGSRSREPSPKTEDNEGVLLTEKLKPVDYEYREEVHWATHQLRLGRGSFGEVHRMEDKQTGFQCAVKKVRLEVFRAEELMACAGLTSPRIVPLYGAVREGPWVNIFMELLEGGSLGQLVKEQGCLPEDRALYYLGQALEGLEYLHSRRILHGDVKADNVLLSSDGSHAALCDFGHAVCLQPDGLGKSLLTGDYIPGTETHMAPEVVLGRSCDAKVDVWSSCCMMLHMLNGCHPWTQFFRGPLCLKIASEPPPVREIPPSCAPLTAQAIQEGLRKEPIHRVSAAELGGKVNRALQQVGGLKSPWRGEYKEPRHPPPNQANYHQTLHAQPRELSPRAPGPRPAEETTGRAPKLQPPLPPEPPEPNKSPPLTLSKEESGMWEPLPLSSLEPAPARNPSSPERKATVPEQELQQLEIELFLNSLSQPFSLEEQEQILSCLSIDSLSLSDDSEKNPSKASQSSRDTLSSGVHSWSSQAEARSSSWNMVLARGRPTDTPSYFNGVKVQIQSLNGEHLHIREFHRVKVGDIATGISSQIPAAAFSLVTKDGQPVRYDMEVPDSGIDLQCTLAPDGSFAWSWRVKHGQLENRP
pIC50: −log10 of the molar value.
Metric name: pIC50

Previously resolved entries follow.
# Compound, pIC50
data = [
    ("[2H]C([2H])([2H])C(O)(C#Cc1cc2c(cn1)c(C1CCN(CCC(F)(F)F)CC1)cn2-c1ccnc(N)n1)C([2H])([2H])[2H]", 7.52),
    ("Nc1ncc(F)c(-n2ccc3cnc(C#CC4(O)CCCC4)cc32)n1", 8.11),
    ("CN1CCC(c2cn(-c3ccnc(N)n3)c3cc(C#CC4(O)CCCC4)ncc23)CC1", 7.43),
    ("CC(C)(O)C#Cc1cc2c(cn1)c(CCCO)cn2-c1ccnc(N)n1", 8.26),
    ("Nc1ncc(Cl)c(-n2ccc3cnc(C#CC4(O)CCCC4)cc32)n1", 7.96),
    ("CC(CC#N)c1cn(-c2nc(N)ncc2F)c2cc(C#CC(C)(C)O)ncc12 (centres unmarked)", 7.42),
    ("CC(C)(O)C#Cc1cc2c(ccn2-c2nc(N)ncc2Cl)cn1", 7.80),
    ("CC(C)(O)C#Cc1cc2c(cn1)c(C#N)cn2-c1ccnc(N)n1", 7.27),
    ("CCc1cn(-c2ccnc(N)n2)c2cc(C#CC(C)(C)O)ncc12", 7.82),
    ("CC(C)(O)C#Cc1cc2c(ccn2-c2nc(N)ncc2F)cn1", 7.89),
]

(A) CC(C)(O)CCc1cn(-c2ccnc(N)n2)c2cc(C#CC3(O)CCCC3)ncc12
(B) CC(CO)c1cn(-c2ccnc(N)n2)c2cc(C#CC(C)(C)O)ncc12 (centres unmarked)
(C) [2H]C([2H])([2H])C(O)(C#Cc1cc2c(cn1)c(C1CCN(C3CC3)CC1)cn2-c1ccnc(N)n1)C([2H])([2H])[2H]
(D) CN1CCC(c2cn(-c3nc(N)ncc3F)c3cc(C#CC(C)(C)O)ncc23)CC1
(E) CC(C)(O)C#Cc1cc2c(cn1)c(CCC(C)(C)O)cn2-c1nc(N)ncc1F
# rank by pIC50, ascending (min first) List each label, following the requested order.
D, C, E, A, B

Data provenance: patent US10005773B2
